Values compiled from the RNAGym collection of RNA variant scans (doi:10.1126/science.aae0568).

B1: tRNA (parent)
chain: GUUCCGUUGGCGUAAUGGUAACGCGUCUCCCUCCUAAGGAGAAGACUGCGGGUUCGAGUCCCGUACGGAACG

Variants of: B1
procedure-text: yeast fitness relative to wild type (ratio to wild type); higher = fitter; tRNA-Arg(CCU), competitive growth, 37 C, YPD
This sample holds only a part of the variants without activity.
endpoint: yeast fitness

- C22A C24A U26C C60G C61U: ≤ 0.5
- G6C A14G A20C G68C: ≤ 0.5
- C5G U35A A40G: ≤ 0.5
- G6A C11G A21C C22G C30G A45U: ≤ 0.5
- A21G C29G C46U C60U G67C: ≤ 0.5
- C22U C46G A65G: ≤ 0.5
- C27G C30G C49U C61A: ≤ 0.5
- C29U U35A C61G: ≤ 0.5
- A14G C31G A37U A57C A69U: ≤ 0.5
- C4U G12A A20G C22U A57G: ≤ 0.5
